Molecular target: Cytochrome P450 1A2 (Homo sapiens)
Assay: Cytochrome panel assay with activity outcomes
Conditions: recombinant CYP, pro-luciferin dealkylation, luminescence, p450-cyp1a2; series mostly up to 57.1 µM
Among all 16,000 compounds or so, about 5,700 (36%) were called active. Inconclusive results (about 24%) are left out. This is one part of the list.
Entries annotated with measured AC50

Entry `CCCN(CCC)C(=S)NC(=O)c1ccc(Cl)cc1Cl` , AC50 reported as 447 nM (active)

molecule `CCCCN=c1sc(C(=O)OC)cc(=O)n1CCCC` , AC50 observed: 251 nM (active)

Entry `Cc1onc(-c2c(Cl)cccc2Cl)c1C(=O)Nc1ccc2c(c1)OCO2` — recorded AC50 = 3160 nM (active)

Proceed to the following item.
Record `CC(=O)c1cc2c(cc1NC(=O)c1c(-c3ccccc3)noc1C)OCO2` . Reported AC50: 2240 nM (active)
